assay: Acute toxicity; conditions: mouse, in vivo; intravenous injection, male Swiss mouses about 20 g, empty since 16 hours; read-out: DL50 (the source's name)
measurement kind: LD50 (mg/kg)

chemical_smiles=CC(C)Cn1cnc2c1c(=O)n(C)c(=O)n2C unit=mg/kg meas_value=129
